System: CCRF-CEM
Test: Growth inhibition of human CCRF-CEM cells after 48 hrs by cell culture assay
Assay type: functional
Details: read-out: ID50 (the source's name)
With a cut-off of 7 µM, any IC50 strictly below it is called true; any IC50 meeting it or above is called false.

Below, 5 molecules whose answers are already recorded.
Ask: Record C=C1C(=O)O[C@@H]2CC[C@@H](O)[C@H]12 (relative stereo) : is its IC50 strictly below 7 µM?
Result: true

Ask: Please determine if C=C1C(=O)OC(C)(C)C1C (configuration not stated) is below 7 µM in terms of IC50.
Result: false

Ask: Item C=C[C@]12CCCC[C@H]1C(=C)C(=O)OC2 (relative stereo) : IC50 beneath 7 µM, strictly?
Result: true

Ask: hey, is IC50 for C=C1C(=O)O[C@H]2CCC[C@@H]1C2 (relative stereo) lower than 7 µM or not?
Result: false

Ask: Could you please tell me whether IC50 recorded for C=C1C(=O)O[C@@H]2CCC[C@@H](O)[C@H]12 (relative stereo) is less than 7 µM?
Result: false

Now look at this one.
Ask: Given C=C(C(=O)OC)[C@H]1CCC[C@H]2C(=C)C(=O)O[C@H]12 (relative stereo) , is recorded IC50 strictly lower than 7 µM?
Result: true
